Experiment: inhibitors of TNFa-induced NFkB p65 translocation, primary screen, imaging, HUVEC, MLSMR starter and 10KST1 sets (AID 438);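 further: compound added about 3h40 before a 20 min TNFalpha stimulation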
Settings: HUVEC TNFa-induced p65 nuclear translocation; measured here: nuclei count (cytotoxicity indicator), at 2.08 µM
Result Type: cell count
One number for each entry.

The cases that follow already have their cell count on record.
>  <Molecule>
CCc1ccc(NC(=O)CS(=O)CC(=O)NC(C)CCc2ccco2)cc1 (centres undefined)

>  <cell count>
388

$$$$
>  <Molecule>
C=CCSc1nnc(-c2cccnc2)o1

>  <cell count>
566

$$$$
>  <Molecule>
C(=N\n1cnnc1)/c1cccc(OCCOc2ccccc2)c1

>  <cell count>
237

$$$$
>  <Molecule>
CC1CN(C(=O)CSc2ncnc3sccc23)CC(C)O1 (centres undefined)

>  <cell count>
356

$$$$
>  <Molecule>
CCCC1CCC(C(=O)Nn2cnc3ccccc3c2=O)CC1 (centres undefined)

>  <cell count>
271

$$$$

Hi, could you look up cell count for each item in my list?
1. CCOC(=O)N1CCC(NC(=O)C2CCCN(C(=O)c3cc4sccc4n3C)C2)CC1 (centres undefined)
2. CSc1ccccc1NC(=O)CN(c1ccccc1)S(=O)(=O)N(C)C
3. COc1ccccc1N1CCN(C(=O)c2cc(-c3ccc(Cl)c(Cl)c3)on2)CC1
4. CC(C)CN(CC(C)C)c1nc(N)c(C#N)c(CC#N)c1C#N

1: 762; 2: 429; 3: 430; 4: 326

====

Target: Voltage-gated potassium channel subunit beta-2 (Rattus norvegicus) (UniProt P62483)
Sequence (P62483 whole entry, looked up): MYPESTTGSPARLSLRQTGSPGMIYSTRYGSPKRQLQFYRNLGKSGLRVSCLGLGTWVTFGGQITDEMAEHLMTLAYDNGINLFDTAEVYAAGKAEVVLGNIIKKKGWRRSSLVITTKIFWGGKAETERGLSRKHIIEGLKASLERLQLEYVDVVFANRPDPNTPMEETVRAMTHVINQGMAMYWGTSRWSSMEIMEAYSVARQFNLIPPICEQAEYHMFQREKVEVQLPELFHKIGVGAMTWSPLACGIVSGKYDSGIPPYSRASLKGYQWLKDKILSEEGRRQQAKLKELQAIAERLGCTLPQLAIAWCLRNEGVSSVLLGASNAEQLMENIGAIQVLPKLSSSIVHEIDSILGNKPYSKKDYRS
Test: inhibitors of rat Kvbeta2 reductase activity – biochemical, NADPH fluorescence, primary screen (AID 622);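 further: slope of raw intensity against log time taken from 70 to 1610 s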
Settings: recombinant KvBeta, 4-cyanobenzaldehyde reduction, at 10 µM, stronger effect = higher value
Result Type: fluorescence slope
Give bare numbers.

>  <Compound>
Cc1cc(C)c(NC2=NCC(=O)N2C2CCCCC2)c(C)c1

>  <fluorescence slope>
-0.389

$$$$
>  <Compound>
Cc1nc2ccc(NC(=O)N3CCC(c4ccccc4)C3)cc2nc1C (centres undefined)

>  <fluorescence slope>
-0.0383

$$$$
>  <Compound>
CCOC(=O)C1CCCN(C(=O)c2cc3c(C)nc4ccccc4c3o2)C1 (centres undefined)

>  <fluorescence slope>
-0.522

$$$$

Hi, could you look up fluorescence slope for each item in my list?
1. CC1CCCN(c2ccc(C(=O)NCc3cccs3)cn2)C1 (centres undefined)
2. COC(=O)c1c(N)n(-c2cc(OC)cc(OC)c2)c2nc3ccccc3nc12
3. CC(C)CNS(=O)(=O)c1ccc(CCC(=O)NCc2ccco2)cc1
4. COc1ccccc1C(=O)N1CCN(CCc2ccccc2)CC1
5. O=C(COc1nnc2ccccn12)N1CCN(S(=O)(=O)c2ccccc2)CC1

1. -0.614
2. -0.0659
3. -0.511
4. -0.385
5. -0.405

====

Target: Voltage-gated potassium channel subunit beta-2 (Rattus norvegicus) (UniProt P62483)
Experiment: enhancers of rat Kvbeta2 NADPH turnover – biochemical, NADPH fluorescence, primary screen (AID 623);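 further: fluorescence intensity change per second fitted from 20 to 320 s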
Conditions: Recombinant KvBeta, NADPH fluorescence decrease slope, 10 min; at 10 µM; stronger effect = lower value
Result Type: NADPH fluorescence slope
Give bare numbers.

The cases that follow already have their NADPH fluorescence slope on record.
>  <Compound>
COc1cccc(NC(=O)c2nnn(Cc3ccc(Br)cc3F)c2N)c1

>  <Assay Target>
Voltage-gated potassium channel subunit beta-2 (Rattus norvegicus) (UniProt P62483)

>  <Val>
-4e-05

$$$$
>  <Compound>
COc1ccc(CCN2C(=O)C3C4C=CC(C4)C3C2=O)cc1OC (stereo not drawn)

>  <Assay Target>
Voltage-gated potassium channel subunit beta-2 (Rattus norvegicus) (UniProt P62483)

>  <Val>
-4e-05

$$$$

For O=C(O)COc1ccc(Oc2ccccc2)cc1 , what is its reported NADPH fluorescence slope?
1.9e-05
